Attribution: PubChem BioAssay (NCI)

experiment: NCI Yeast Anticancer Drug Screen. Data for the bub3 strain (AID 167); conditions: S. cerevisiae bub3 mutant strain, at 50.0 µM, stronger effect = higher value
Compounds without any hit were thinned out: in the full panel of roughly 79,000, 15% have a hit.
Catalogue of molecules with associated growth inhibition
Response body: numeric value in %, unit text excluded.

// known answers, use as guide
>>> observed_measurement("O=[N+]([O-])c1ccc(C2=Nc3ccccc3S(=O)C(c3ccccc3)C2)cc1 (centres undefined)")
10.7
>>> observed_measurement("CC(C)N1C(=O)c2ccccc2C1=O")
15.1
>>> observed_measurement("O=C1c2ccccc2C(=O)N1CC1CO1 (centres undefined)")
3.4
>>> observed_measurement("CC(C)(C(N)=O)c1ccccc1")
-1.55
>>> observed_measurement("CCOC1=CC(=O)CCC1")
-7.1

COc1ccc(C(O)C2c3c(cc4c(c3OC)OCO4)CCN2C)c(CO)c1OC (centres undefined) has a reported growth inhibition of 17.9

###

experiment: NCI Yeast Anticancer Drug Screen. Data for the cln2 rad14 strain (AID 165);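 further: 0% = growth equal to vehicle treated cultures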; conditions: S. cerevisiae cln2 rad14 strain, at 50.0 µM, stronger effect = higher value
Compounds without any hit were thinned out: in the full panel of roughly 79,000, 15% have a hit.
Tag: Met if measured growth inhibition is not below 10%, Not met if it is.

Below, 4 compounds whose answers are already recorded.
>>> cat("CN(N)C(=O)NCCCl")
"Met"
>>> cat("CC(=O)CC(=O)Nc1cccc(O)c1")
"Met"
>>> cat("COc1ccc(/C(=N\\O)C(c2ccc(OC)cc2)C(Cl)(Cl)Cl)cc1 (stereo not given)")
"Met"
>>> cat("CCOC(CNCc1ccc(OC)cc1)OCC")
"Not met"

Qu. API: above_or_equal(metric=growth inhibition, cutoff=10%) for item CN1CCC(c2ccccc2)(c2ccccc2)OC1
Ans. Not met

###

experiment: NCI Yeast Anticancer Drug Screen. Data for the mec2-1 strain (AID 157); details: S. cerevisiae mec2-1 strain, at 50.0 µM, stronger effect = higher value
The panel holds about 79,000 compounds, 15% with a hit somewhere; the sample as a whole holds those more often.
Mark Criterion not met for growth inhibition values under -10%, and Criterion met for everything at or above.

Recorded results for 4 molecules are shown here.
>>> cat("COc1cc2c3c(c1)SC(C)C(=O)N3CCN2 (stereo not drawn)")
"Criterion not met"
>>> cat("CON1C(=O)c2ccccc2C1=O")
"Criterion met"
>>> cat("O=S1OC(c2ccccc2)C(c2ccccc2)O1 (stereo not drawn)")
"Criterion not met"
>>> cat("O=S(=O)(O)c1cc[n+]([O-])cc1")
"Criterion met"

Qu. Does CCCC(=O)Oc1cccc(C)c1 have a reported growth inhibition of at least -10%?
Ans. Criterion met

Qu. Has C[C@]12CCC(=O)CC1CCCC2=O (stereo partly drawn) a recorded growth inhibition greater than or equal to -10%?
Ans. Criterion not met

Qu. Please tell me: is the molecule CC(=O)N(C)Nc1ccccc1 at or over -10% in terms of growth inhibition?
Ans. Criterion not met

###

assay: NCI Yeast Anticancer Drug Screen. Data for the bub3 strain (AID 167); conditions: S. cerevisiae bub3 mutant strain, at 50.0 µM, stronger effect = higher value
The panel holds about 79,000 compounds, 15% with a hit somewhere; the sample as a whole holds those more often.
Below: a set of entries, each annotated with reported growth inhibition.
Lab book: enter the figure in %, no units written.

>>> observed_measurement("COC(=O)/C(=N\\NC(C)(C)C)C(C(=O)OC)C(=O)C(=O)Nc1cc(Cl)ccc1Cl (stereo unspecified)")
-24.6

growth inhibition reading for Cc1ccc(S(=O)(=O)OC2CCC(C(C)(C)C)C(Cl)C2)cc1 (stereo unspecified) : 3.35

Entry O=C1c2ccccc2C(=O)N1N1C(=O)C2C3CCC(O3)C2C1=O (stereo unspecified) — recorded growth inhibition = 17.5

# growth inhibition of CCOC(=O)Cc1nc2sc3c(c2c(=O)[nH]1)CCCC3 = 3.9
